- Test system: SK-OV-3 ovarian
- Experimental protocol: NCI-60 one-dose screen, 48 h
- Condition summary: 10 µM unless noted
The panel holds about 83,000 compounds, 20% with a hit somewhere; the sample as a whole holds those more often. Activity calls are given as the source filed them. How the source made its calls: active means growth percent below 10; inactive means the rest.
Outcome field: choose from active, inactive

C=CCS(C)(=O)=O : inactive
O=C(O)Cc1ccccn1 : inactive
C=CC1=NC(C)(C)CC(C)O1 (stereo not given) : inactive
Cc1cccc(-[n+]2noc(N)n2)c1 : inactive
CCN(CC)CCOC(=O)Nc1c(C(C)C)cccc1C(C)C : inactive
COc1ccc(/C=C\C(=O)/C=C/c2ccc(OC)cc2)cc1 : inactive
NC(=O)N1CCOCC1 : inactive
O=[n+]1ccn([O-])c2ccccc21 : inactive
CCCCn1cnc2c(=O)[nH]cnc21 : inactive
ON1CCCC1 : inactive

// switching to the query compound
Check the results log: what was the call for `CCC(=O)C1C(=O)c2ccccc2C1=O` ?
inactive

----------
Below, each of the molecules is paired with its reported growth value.
- System: 786-0 renal
- Experimental protocol: NCI-60 one-dose screen, 48 h (100 = growth as untreated, 0 = no growth, -100 = all killed)
- Condition summary: 10 µM unless noted
This is part of a sample that, as a whole, favours compounds with a hit. Of some 83,000 tested, about 20% had one in any assay.
Answer with a number only, understood to be in %.

COC1CC(OC(=O)c2ccc([N+](=O)[O-])cc2)C(COC(=O)c2ccc([N+](=O)[O-])cc2)O1 (stereo not given) : 105
O=C1C=CC(=O)C2=C1CCCC2 : 107
Cc1ccc(S(=O)(=O)NC(=O)NCCSSCCNC(=O)NS(=O)(=O)c2ccc(C)cc2)cc1 : 104

I am curious: what growth value has been reported for `Cc1cc2c(C(C)C)c(O)c(O)c(C=Nc3ccccc3[N+](=O)[O-])c2c(O)c1-c1c(C)cc2c(C(C)C)c(O)c(O)c(C=Nc3ccccc3[N+](=O)[O-])c2c1O` ?
96.1

Also `CCOC(=O)C(COS(C)(=O)=O)(COS(C)(=O)=O)C(=O)OCC` ?
108

Next molecule: `Cc1cccc(C)c1NC(=S)/N=C\c1c(O)[nH]c(=O)[nH]c1=O`
101

And what about the molecule `ON1CCCC1` ?
98.4

# iterate: `CCOC(=O)c1ccc(Nc2sc(C(=O)c3ccc(Br)cc3)c(N)c2C#N)cc1`
22.8

Item: `CCCCCC(=O)OCCC1CCCCC1`
106

Moving on to the next molecule: CCC(C)c1c(N)n(S(=O)(=O)c2ccc(C)cc2)oc1=O (stereo not given)
119

----------
- Tested on: SF-295 CNS
- Experimental protocol: NCI-60 one-dose screen, 48 h (100 = growth as untreated, 0 = no growth, -100 = all killed)
- Condition summary: 10 µM unless noted
About 83,000 compounds went through this panel and 20% of them were active in at least one assay; those are over-represented in the sample as a whole.
Measurement name: growth (%)
Your answer should be a plain number; it is taken to be in %.

COCC(N)=O : 102
CN=S(=O)(OCCCCCOS(=O)(=NC)c1ccc(C)cc1)c1ccc(C)cc1 (configuration not stated) : 91.6
CC(=O)c1cc(O)ccc1O : 104
COC(=O)c1ccc([N+](=O)[O-])c(C)c1 : 109

GET /values?readout=growth&item= `O=C(c1ccccc1O)N1CCCC1`
96.6

Lookup `CCOC(C=O)OCC`
99

Then what about the compound `OCCOc1ccc(-c2cc(-c3ccccn3)nc(-c3ccccn3)c2)cc1` ?
14.6

Please give the result for CN1CCCN(C(c2ccccc2)c2ccc(Cl)cc2)CC1 (configuration not stated) too.
92.2

Another compound: `O=C(Nc1c(Cl)cc(Cl)cc1Cl)ON=C1CCCCC1`
102

Try this compound too: `C/C(=N\N=C(/C)c1cccc([N+](=O)[O-])c1)c1cccc([N+](=O)[O-])c1`
95.8

Next compound up: `CN(C)c1ccc2nc3ccc(=[N+](C)C)cc-3oc2c1`
50.3

----------
- System: CAKI-1 renal
- Experimental protocol: NCI-60 one-dose screen, 48 h
- Condition summary: 10 µM unless noted
The panel holds about 83,000 compounds, 20% with a hit somewhere; the sample as a whole holds those more often. Calls of active or inactive are those of the source. Rule for the calls: active = growth percent below 10; inactive = the rest.
Lab note: assign the record to one of yes (1) (active), no (0) (inactive)

CC(=O)NCNC(C)=O : no (0)
CC(C)Sc1ncnc2nc[nH]c12 : no (0)
CC(=O)NNC(=S)/N=C\C(C(=O)c1ccccc1)=C(/O)c1ccccc1 : no (0)
Ic1cccs1 : no (0)
CC(C)C(=O)OCCOc1ccc(C(C)(C)C)cc1 : no (0)
CCOC(=N)CC(=O)Nc1cccc(C)c1Cl : no (0)
CC1(c2ccccc2)CO1 (configuration not stated) : no (0)
Cn1/c(=N\N=C\c2ccccc2OCCO)sc2ccccc21 : no (0)
C1Cc2onc(-c3noc4c3CCC4)c2C1 : no (0)
COC(c1ccc2c(c1)OCO2)C(C)Br (configuration not stated) : no (0)

Could you please tell me the result logged for `CCCCCCCCNC(=O)C(C)C` in this assay?
no (0)

How about this compound: `C=CCc1cc(OC)c(O)c(OC)c1`
no (0)

----------
- Tested on: SK-MEL-28 melanoma
- Experimental protocol: NCI-60 one-dose screen, 48 h (100 = growth as untreated, 0 = no growth, -100 = all killed)
- Condition summary: 10 µM unless noted
The panel holds about 83,000 compounds, 20% with a hit somewhere; the sample as a whole holds those more often. The source made the active and inactive calls. Rule for the calls: active = growth percent below 10; inactive = the rest.
Some compounds, each annotated with its measured growth.

Cc1cc(Cc2ccccc2)c(O)c(Cc2ccccc2)c1 : 106% (inactive)
CC1(C)OC2C(CO)OC(n3ccc(=O)[nH]c3=O)C2O1 (configuration not stated) : 108% (inactive)
Nc1c(Br)cc(O)c2c1C(=O)c1ccccc1C2=O : 112% (inactive)

// lookup growth for `Cc1cccc(C)c1NC(=S)/N=C\c1c(O)[nH]c(=O)[nH]c1=O`
111% (inactive)

Input CC(C)N1CC(=O)N2CSCC2C1=O (configuration not stated)
111% (inactive)

Another compound to check: CCC12OC(COc3ccccc3)CN1CCN2c1ccccc1 (configuration not stated)
103% [100 µM] (inactive)

`CCCCN(C=S)CCCC` , same question.
96.2% (inactive)

----------
Below, each entry is listed with its recorded growth.
- Tested on: DU-145 prostate
- Experimental protocol: NCI-60 one-dose screen, 48 h (100 = growth as untreated, 0 = no growth, -100 = all killed)
- Condition summary: 10 µM unless noted
Compounds without any hit were thinned out: in the full panel of roughly 83,000, 20% have a hit.
Entry rule: numbers only, all in %.

O=S(=O)(O)c1cccc2cccnc12 : 120
CCCOCc1cn[nH]n1 : 108
O=[N+]([O-])c1ccc(-c2nc(N(CCO)CCO)c3ccccc3n2)o1 : -22.8
O=C(NCc1ccccc1)/C(=C/c1ccccc1)NC(=O)c1ccccc1 : 111
CS(=O)CC(=N\O)/C(CS(C)=O)=N\O (stereo not drawn) : 102
CC(CO)(CO)C(=O)O : 105

What does the record list as growth for `Nc1nc(N)nc(N2CCCCC2)n1` ?
107

For `CN(C)c1ccc(/C=C/C(=O)c2ccc(NC(N)=O)cc2)cc1` then?
98.8

Can you handle `C/C(=N\N=C(/C)c1cccc([N+](=O)[O-])c1)c1cccc([N+](=O)[O-])c1` next?
95.3

Would you mind doing `O=c1nc(Nc2cccc(Cl)c2)oc2cc(Cl)oc(=O)c12` as well?
113

----------
- System: COLO 205 colon
- Experimental protocol: NCI-60 one-dose screen, 48 h
- Condition summary: 10 µM unless noted
Compounds without any hit were thinned out: in the full panel of roughly 83,000, 20% have a hit. Activity calls are given as the source filed them. The calls were made as follows: active = growth percent below 10; inactive = the rest.
In this exercise, the only acceptable responses are 1.0 (active), 0.0 (inactive)

Could you please tell me the result logged for CC1(c2ccccc2)CO1 (configuration not stated) in this assay?
0.0

# iterate: `CCCCCC/C=C\CCCCCCCCCc1cc(O)cc(OC)c1O`
1.0

Then what about the compound `Oc1cc(O)c2c(c1)O[C@H](c1ccc(O)c(O)c1)[C@@H](O)C2` ?
0.0

Query `COc1nc2ccccc2s1` next
0.0

Now the same for `CCOC(=O)CSCCC#N`
0.0

----------
This section presents compounds with their documented growth values.
- Tested on: SF-295 CNS
- Experimental protocol: NCI-60 one-dose screen, 48 h (100 = growth as untreated, 0 = no growth, -100 = all killed)
- Condition summary: 10 µM unless noted
- Experimental: Cells are grown in 96 well plates and exposed to the test compound for 48 hours. Compounds are tested at a single concentration, which is 10^-5 M for most compounds. The reported endpoint is percent growth (GI% or GIPRCNT), where numbers from 0 - 100% represent growth inhibition, and numbers from -100% - 0 represent cell death. For example, a value of 40 represents 60% growth inhibition. A value of 0 means no net growth occurred over the course of the experiment. […]
About 83,000 compounds went through this panel and 20% of them were active in at least one assay; those are over-represented in the sample as a whole.
Give your result in % as a bare value.

Consider the following illustrative entries.
COc1cc(CC#N)c([N+](=O)[O-])cc1OC : 110
O=c1[nH]c(=O)c2cc(Cl)cc(Cl)c2[nH]1 : 114
CCC(=O)Oc1ccc2ccccc2c1 : 101
Cn1/c(=N\N=C\c2ccccc2OCCO)sc2ccccc21 : 94

Recorded growth of `COc1ccc(Nc2cc(Cl)ccc2C(=O)O)cn1` , please.
138

Check `Nc1cc2ccccc2c(O)c1O` too.
85

Moving on to `ClCc1cccc2c(CCl)cccc12`
58.6
